Data provenance: ChEMBL document CHEMBL1201862

- Tested on: M14
- Experiment: NCI tumour cell line growth inhibition, 48 h
Calls of active or inactive are those of the source. No stated cut-off is given here; in the data, active = GI50 up to about 1.1 µM and inactive = higher.

Compound: COC(=O)/C(=C1\OC(=O)C(c2ccc(Cl)cc2)=C1O)c1ccc(Cl)cc1
GI50: 31.2 µM (inactive)

Compound: Cc1nc(Nc2ccccc2Cl)sc1C(=O)CC(=O)C(N)=O
GI50: 75.3 µM (inactive)

Compound: COc1ccc(C2(CC(C)C)CCN(S(=O)(=O)c3ccc(C)cc3)C2)cc1OC (configuration not stated)
GI50: 34.8 µM (inactive)

Compound: COc1cc2c(cc1OC)-c1c3cc(O)ccc3nn[n+]1CC2
GI50: > 100 µM (inactive)

Compound: O=Cc1c(-c2ccccc2)nc2ccccc2c1O
GI50: 68.2 µM (inactive)

Compound: O=C(Nc1cccc(NC(=O)c2cc(=O)c3ccccc3o2)n1)c1cc(=O)c2ccccc2o1
GI50: 12.3 µM (inactive)

Compound: COc1ccc(/C(=N/O)c2ccccc2C2=Nc3ccccc3C(NCc3ccccc3)O2)cc1C (configuration not stated)
GI50: 39.4 µM (inactive)

Compound: O=C(O)/C(=C\c1ccc(O)cc1)c1cccc2ccccc12
GI50: > 100 µM (inactive)

Compound: COC(=O)c1ccc2[nH]c3c(c2c1)CC(=O)Nc1ccccc1-3
GI50: 35.8 µM (inactive)

Compound: COC(=O)[C@]1(CCC(C)=O)C(=O)C=CN([C@H](C)c2ccccc2)[C@@H]1Cc1ccc(OC)c(OCc2ccccc2)c1I
GI50: 15 µM (inactive)

Compound: CSc1ccc(/C=C2\CNC/C(=C\c3ccc(SC)cc3)C2=O)cc1
GI50: > 206 µM (inactive)

Compound: Cc1ccc(S(=O)(=O)c2ccccn2)cc1
GI50: > 100 µM (inactive)
